Assay Target: PRMT5/MEP50 complex (Homo sapiens (Human))
Sequence (O14744 whole entry): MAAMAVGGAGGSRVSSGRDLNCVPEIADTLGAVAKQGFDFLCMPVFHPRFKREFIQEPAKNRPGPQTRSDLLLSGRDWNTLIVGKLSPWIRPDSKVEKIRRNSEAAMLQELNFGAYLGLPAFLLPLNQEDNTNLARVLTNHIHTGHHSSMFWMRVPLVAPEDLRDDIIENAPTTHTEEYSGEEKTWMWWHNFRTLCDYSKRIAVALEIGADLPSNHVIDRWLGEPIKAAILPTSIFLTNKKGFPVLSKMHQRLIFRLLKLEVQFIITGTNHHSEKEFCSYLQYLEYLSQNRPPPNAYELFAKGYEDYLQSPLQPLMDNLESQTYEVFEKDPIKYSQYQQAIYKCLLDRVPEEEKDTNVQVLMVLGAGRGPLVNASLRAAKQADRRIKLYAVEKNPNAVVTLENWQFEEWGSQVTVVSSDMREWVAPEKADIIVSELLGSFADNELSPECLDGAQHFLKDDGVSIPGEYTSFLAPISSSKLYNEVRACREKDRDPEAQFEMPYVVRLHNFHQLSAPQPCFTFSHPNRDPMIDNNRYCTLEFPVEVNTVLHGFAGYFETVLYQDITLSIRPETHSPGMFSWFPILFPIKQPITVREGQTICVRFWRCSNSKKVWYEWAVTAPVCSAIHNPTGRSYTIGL
Sequence (Q9BQA1 whole entry partner): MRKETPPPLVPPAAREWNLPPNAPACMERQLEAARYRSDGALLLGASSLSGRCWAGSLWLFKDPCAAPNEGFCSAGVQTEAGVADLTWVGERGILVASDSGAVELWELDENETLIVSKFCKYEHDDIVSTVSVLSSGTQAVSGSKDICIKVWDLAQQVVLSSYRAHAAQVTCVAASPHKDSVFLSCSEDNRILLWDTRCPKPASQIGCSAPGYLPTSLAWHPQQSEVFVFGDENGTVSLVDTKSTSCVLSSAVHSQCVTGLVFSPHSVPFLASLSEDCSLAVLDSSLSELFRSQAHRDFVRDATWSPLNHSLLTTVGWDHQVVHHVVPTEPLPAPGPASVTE
Measurement Protocol: HotSpot Assay
Format: biochemical
pIC50: −log10 of the molar value.
Test Readout: pIC50

Sample records with pIC50:
>>> meas_value("CO/N=c1\\[nH]cnc2c1ccn2[C@@H]1O[C@H]([C@H](O)c2ccc3c(c2)CC3)[C@@H](O)[C@H]1O")
7.49
>>> meas_value("Nc1ncnc2c1c(Br)cn2[C@@H]1O[C@H]([C@H](O)c2ccc3c(c2)CC3)[C@@H](O)[C@H]1O")
7.96
>>> meas_value("Cc1ncnc2c1ccn2[C@@H]1O[C@H]([C@H](O)c2ccc3c(c2)CC3)[C@@H](O)[C@H]1O")
8.52
>>> meas_value("Nc1ncnc2c1ccn2[C@@H]1O[C@H]([C@H](O)c2ccc3c(c2)CC3)[C@@H](O)[C@H]1O")
8.70
>>> meas_value("C[C@@](O)(c1ccc2c(c1)CC2)[C@H]1O[C@@H](n2ccc3c(N)ncnc32)[C@H](O)[C@@H]1O")
8.52
>>> meas_value("Nc1ncnc2c1c(F)cn2[C@@H]1O[C@H]([C@H](O)c2ccc3c(c2)CC3)[C@@H](O)[C@H]1O")
9.15

(a) COc1ncnc2c1ccn2[C@@H]1O[C@H]([C@H](O)c2ccc3c(c2)CC3)[C@@H](O)[C@H]1O
(b) CCO/N=c1\[nH]cnc2c1ccn2[C@@H]1O[C@H]([C@H](O)c2ccc3c(c2)CC3)[C@@H](O)[C@H]1O
(c) Cc1ncnc2c1ccn2[C@@H]1O[C@H]([C@H](O)c2nc3c(s2)CCC3)[C@@H](O)[C@H]1O
Exam item: Order by pIC50, ascending. Provide the labels, sequenced as the question asks.
Marked response: b, a, c
(b: 6.82, a: 7.34, c: 8.05)

(I) CCO/N=c1\[nH]cnc2c1ccn2[C@@H]1O[C@H]([C@](C)(O)c2ccc3c(c2)CC3)[C@@H](O)[C@H]1O
(II) Nc1ncnc2c1ccn2[C@@H]1O[C@H]([C@H](O)c2ccc3c(c2)OCC3)[C@@H](O)[C@H]1O
(III) OCCc1ncnc2c1ccn2[C@@H]1O[C@H]([C@H](O)c2ccc3c(c2)CC3)[C@@H](O)[C@H]1O
Exam item: // ranking: key=pIC50, reverse=True Please respond with the labels ordered as the question requires.
Marked response: II, I, III
(II: 8.22, I: 7.24, III: 6.79)

(I) Nc1ncnc2c1c(I)cn2[C@@H]1O[C@H]([C@H](O)c2ccc3c(c2)CC3)[C@@H](O)[C@H]1O
(II) Nc1ncnc2c1c(C(F)(F)F)cn2[C@@H]1O[C@H]([C@H](O)c2ccc3c(c2)CC3)[C@@H](O)[C@H]1O
Exam item: // which entry reports the smaller pIC50, I or II ? Please indicate the selected item by its label.
Marked response: II
(II: 6.43, I: 7.92)

###

System: U-87 MG cells
Measurement Protocol: Cell proliferation assay in U-87 MG cells
Format: cell-based
Condition Info: Homo sapiens, 240 h, day 10, read-out: Prolif_U87 IC50
pIC50: −log10 of the molar value.
Test Readout: pIC50

>>> meas_value("Cc1ncnc2c1ccn2[C@@H]1O[C@H]([C@H](O)c2ccc3c(c2)CCC3)[C@@H](O)[C@H]1O")
5.94
>>> meas_value("Cc1ncnc2c1ccn2[C@@H]1O[C@H]([C@H](O)c2ccc3c(c2)CC3)[C@@H](O)[C@H]1O")
6.69

(a) COCCc1ncnc2c1ccn2[C@@H]1O[C@H]([C@H](O)c2ccc3c(c2)CC3)[C@@H](O)[C@H]1O
(b) Nc1ncnc2c1ccn2[C@@H]1O[C@H]([C@H](O)c2ccc3c(c2)CCC3)[C@@H](O)[C@H]1O
Exam item: I'm curious whether a or b has the smaller pIC50 number. Which is it? Answer = label.
Marked response: a
